Kindly state TGI for each of the entries shown.
System: EKVX NSCLC
measurement_description: NCI tumour cell line growth inhibition, 48 h

Below: 2 molecules and their reported TGI.
C=CCN1C[C@H](C)N([C@H](c2ccc(C(=O)N(CC)CCO)cc2)c2cccc(OC)c2)C[C@H]1C	> 100 µM
COC(=O)C12C3C4C5(C(=O)OC)C(C1C35C(=O)N(C(C)C)C(C)C)C42C(=O)N(C(C)C)C(C)C (centres undefined)	> 50 µM

Lab note: each molecule below needs its TGI filled in.
1. COc1cc(/C=C2\C(=O)Nc3ccc(F)cc32)cc(OC)c1OC
2. COc1ccc(-c2cc(-c3cccn3C)c(C#N)c(N)n2)cc1OC

Response:
> 100 µM
> 100 µM

Values from PubChem BioAssay (NCI)
